Catalogue of molecules with associated pIC50
- target_under_test: PD-1-Ig binding to PD-L1-TVMV-His (PD-L1-His) (Homo sapiens)
- Construct: hPDL1(19-239)-TVMV-His; TVMV protease cleavage site (C); made in house; host or cells: HEK293T cells
- Sequence (Q9NZQ7 with tags, fused parts or gaps): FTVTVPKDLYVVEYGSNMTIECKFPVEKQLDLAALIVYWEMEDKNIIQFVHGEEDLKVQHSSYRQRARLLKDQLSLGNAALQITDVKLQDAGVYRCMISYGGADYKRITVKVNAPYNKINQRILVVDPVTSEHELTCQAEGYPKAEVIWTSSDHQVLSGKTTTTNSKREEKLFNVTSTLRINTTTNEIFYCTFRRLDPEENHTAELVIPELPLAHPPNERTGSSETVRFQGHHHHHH
- assay_name: PD-1/PD-L1 Homogenous Time-Resolved Fluorescence (HTRF) binding assay
- test_settings: PD-1-Ig/PD-L1-His binding; values given as range classes
pIC50: −log10 of the molar value. Positions of bridges follow the written chain, without caps; N, C: chain ends. Non-standard residues stand in square brackets, D forms with d. Residues, ends and D or L forms follow the SMILES beside them. Hyp = O=C(O)[C@@H]1C[C@@H](O)CN1; NMeNle = CCCC[C@H](NC)C(=O)O; NMeA = CN[C@@H](C)C(=O)O; Ac5c = NC1(C(=O)O)CCCC1; Dab = NCC[C@H](N)C(=O)O; Dap = NC[C@H](N)C(=O)O; Aib = CC(C)(N)C(=O)O

Worked cases, pIC50 given:
molecule	pIC50
CCCC[C@H]1C(=O)N(C)[C@@H](CCCC)C(=O)N[C@@H](CC(C)C)C(=O)N[C@H](C(=O)NCC(N)=O)CSCC(=O)N[C@@H](Cc2ccc(O)cc2)C(=O)N(C)[C@@H](C)C(=O)N[C@@H](CC(N)=O)C(=O)N2CCC[C@H]2C(=O)N[C@@H](CN)C(=O)NC(C)(C)C(=O)N2C[C@H](O)C[C@H]2C(=O)N[C@@H](Cc2c[nH]c3ccccc23)C(=O)N[C@@H](CCN)C(=O)N[C@@H](Cc2c[nH]c3ccccc23)C(=O)N1C [Example 9009] ({CH2CO}-Y[NMeA]NP[Dap][Aib][Hyp]W[Dab]W[NMeNle][NMeNle]LCG-NH2; thioether N-14)	5.00 to 7.00
CCCC[C@H]1C(=O)N(C)[C@@H](CCCC)C(=O)N[C@@H](CC(C)C)C(=O)N[C@H](C(=O)NCC(N)=O)CSCC(=O)N[C@@H](Cc2ccc(O)cc2)C(=O)N(C)[C@@H](C)C(=O)N[C@@H](CC(N)=O)C(=O)N2CCC[C@H]2C(=O)N[C@@H](CN)C(=O)N[C@@H](CC(C)C)C(=O)N2C[C@H](O)C[C@H]2C(=O)N[C@@H](Cc2c[nH]c3ccccc23)C(=O)NC(C)(C)C(=O)N[C@@H](Cc2c[nH]c3ccccc23)C(=O)N1C [Example 9007] ({CH2CO}-Y[NMeA]NP[Dap]L[Hyp]W[Aib]W[NMeNle][NMeNle]LCG-NH2; thioether N-14)	5.00 to 7.00
CCCC[C@H]1C(=O)N(C)[C@@H](CCCC)C(=O)NC2(CCCC2)C(=O)N[C@H](C(=O)NCC(N)=O)CSCC(=O)N[C@@H](Cc2ccc(O)cc2)C(=O)N(C)[C@@H](C)C(=O)N[C@@H](CC(N)=O)C(=O)N2CCC[C@H]2C(=O)N[C@@H](CN)C(=O)N[C@@H](CC(C)C)C(=O)N2C[C@H](O)C[C@H]2C(=O)N[C@@H](Cc2c[nH]c3ccccc23)C(=O)N[C@@H](CCN)C(=O)N[C@@H](Cc2c[nH]c3ccccc23)C(=O)N1C [Example 9015] ({CH2CO}-Y[NMeA]NP[Dap]L[Hyp]W[Dab]W[NMeNle][NMeNle][Ac5c]CG-NH2; thioether N-14)	7.00 to 8.00

Shift focus to the following entry.
Exercise: Supply measured pIC50 of CCCC[C@H]1C(=O)N(C)[C@@H](CCCC)C(=O)N[C@@H](CCCNC(=N)N)C(=O)N[C@H](C(=O)NCC(N)=O)CSCC(=O)N[C@@H](Cc2ccccc2)C(=O)N(C)[C@@H](C)C(=O)N[C@@H](CC(N)=O)C(=O)N2CCC[C@H]2C(=O)N[C@@H](Cc2cnc[nH]2)C(=O)N[C@@H](CC(C)C)C(=O)NC2(CCCC2)C(=O)N[C@@H](Cc2c[nH]c3ccccc23)C(=O)N[C@@H](CO)C(=O)N[C@@H](Cc2c[nH]c3ccccc23)C(=O)N1C [Example 1001] in your reply.
Key: 5.00 to 7.00
